inhibition: recorded values
Assay: antifungal drug efflux pump blockers, triplex strains – S. cerevisiae, Nile Red, multiplex, primary screen (AID 485275);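 also: Nile Red retained in pooled yeast measured as flow cytometry median fluorescence; 0% = buffer negative control and 100% = Enniatin B positive control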
Conditions: S. cerevisiae Candida pump triplex, at 10 µM, active compounds read high
Out of some 330,000 compounds screened, about 1,400 (0.42%) were called active. Shown is part of a subset that was picked to be rich in actives.
Express your answer in %, writing the number without its unit.

// known answers, use as guide
COMPOUND	inhibition / %
O=S(=O)(c1ccccc1)N1CCc2ccccc21	0.75
O=S(=O)(c1ccc2c(c1)OCCO2)N1CCc2ccccc21	0.34
CCOc1ccccc1/C=c1\sc2nc(-c3ccco3)nn2c1=O	3.16

# compound `CC(C)(C)OC(=O)N1CCC(C(=O)NNC(=O)c2ccc(Cl)cc2Cl)CC1` ; its inhibition = -0.04

# compound CCOc1ccccc1C1NC(=O)NC(C)=C1C(=O)OCc1ccco1 (stereo unspecified) ; its inhibition = 0.02

# compound `CC(=C/c1ccccc1)/C=N/NC(=O)c1cc(C)oc1C` ; its inhibition = 0.06

# compound CC(C)(C)C1CCC(=NNC(=O)c2cc(-c3ccccc3)n[nH]2)CC1 (stereo unspecified) ; its inhibition = 0.31

# compound `O=C(CNC(=O)c1ccc(-c2ccccc2)cc1)OCc1ccc(Cl)cc1` ; its inhibition = 17.2

# compound `Cc1nn(C)cc1N1C(=O)c2cccc3c(N)ccc(c23)C1=O` ; its inhibition = 0.48

# compound `Cc1ccc(C(=O)NCC(=O)OCc2nnc(-c3ccccc3)o2)cc1` ; its inhibition = 0.08

# compound `CC(/C=N/NC(=O)c1cc(-c2ccc3ccccc3c2)n[nH]1)=C\c1ccco1` ; its inhibition = 0.5

* * *

Assay: antifungal drug efflux pump blockers, triplex strains – S. cerevisiae, Nile Red, multiplex, primary screen (AID 485275)
Settings: S. cerevisiae Candida pump triplex, at 10 µM, active compounds read high
Among all 330,000 compounds or so, about 1,400 (0.42%) were called active. Shown is part of a subset that was picked to be rich in actives.
OBSERVABLE: inhibition (%)
Express your answer in %, writing the number without its unit.

MOLECULE	OBSERVABLE	OBSERVED
CC(=O)N1CCN(CC(C)(C)NS(=O)(=O)c2ccc(C)cc2)CC1	inhibition	0.16

# molecule Cn1c(=O)c2c(nc(N3CCCCCC3)n2CC(O)COc2ccc(Cl)cc2)n(C)c1=O (configuration not stated) ; its inhibition = 0.11

# molecule O=C(NCC1CCCO1)c1ccccc1-c1nc(-c2ccccc2Cl)no1 (configuration not stated) ; its inhibition = -0.05

# molecule `CCCc1nnc(SCC(=O)Nc2ccc(C(=O)OCC)cc2)o1` ; its inhibition = 2.83

# molecule `Fc1cnc(N2CCOCC2)nc1NCc1ccccc1` ; its inhibition = -0.13

# molecule `O=C(NCc1nnc(SCC(=O)N2CCCCCC2)o1)c1ccc(F)cc1` ; its inhibition = -0.18

# molecule `Cc1ccc2[nH]c3c(=O)n(CC(=O)NCCc4ccc(Cl)cc4)ncc3c2c1` ; its inhibition = 0.66

# molecule O=C(NCc1ccncc1)C(=O)NCC1OCCN1S(=O)(=O)c1ccc(Br)cc1 (configuration not stated) ; its inhibition = 0.06

# molecule `O=C(CCCCCn1c(=O)[nH]c2ccccc2c1=O)NCCc1c[nH]c2ccccc12` ; its inhibition = 0.52

# molecule `CCCN1CNC(=S)N(CCc2ccccc2)C1` ; its inhibition = -0.07

# molecule `O=C(OCc1ccc(Br)cc1)c1cccc(-c2nnc(-c3ccccc3)o2)c1` ; its inhibition = 0.06

# molecule `O=C(CSc1nnc(-c2cccnc2)n1Cc1ccco1)c1ccc(Cl)c(Cl)c1` ; its inhibition = 0.84

* * *

Test: antifungal drug efflux pump blockers, triplex strains – S. cerevisiae, Nile Red, multiplex, primary screen (AID 485275)
Conditions: S. cerevisiae Candida pump triplex, at 10 µM, active compounds read high
Out of some 330,000 compounds screened, about 1,400 (0.42%) were called active. The sample as a whole holds a higher share of actives than the screen did.
Cut-off 10% on inhibition, inclusive. At or above means rule met; below means rule not met.

// known answers, use as guide
COMPOUND	ASSIGNED_CATEGORY
C=CCC[C@@H](Cc1ccc(F)cc1)C(=O)OC[C@H](Cc1c[nH]c2ccccc12)NC(=O)[C@@H](CC=C)CC(=O)N(CCO)Cc1ccccc1	rule met
CCOC(=O)N1CCN(S(=O)(=O)c2ccc(C(=O)Nc3ccc(F)cc3F)cc2)CC1	rule not met
Cc1ccc(S(=O)(=O)N2CC(C)N(S(C)(=O)=O)C2)cc1 (stereo not given)	rule not met

Prompt line: Is the recorded value of inhibition equal to or greater than 10% for this compound? `Cc1ccc(C(=O)O)cc1N1C(=O)CCCC1=O`
Response line: rule not met

* * *

Assay: antifungal drug efflux pump blockers, triplex strains – S. cerevisiae, Nile Red, multiplex, primary screen (AID 485275);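 also: Nile Red retained in pooled yeast measured as flow cytometry median fluorescence; 0% = buffer negative control and 100% = Enniatin B positive control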
Settings: S. cerevisiae Candida pump triplex, at 10 µM, active compounds read high
Out of some 330,000 compounds screened, about 1,400 (0.42%) were called active. The full list was thinned out, with actives kept by preference.
OBSERVABLE: inhibition (%)
Express your answer in %, writing the number without its unit.

COMPOUND	inhibition [%]
CCOC(=O)CNC(=O)CSc1nnnn1-c1cc(C)ccc1C	0.92
COc1cc(CNc2ncn[nH]2)ccc1OCc1ccccc1C	0.06
CC(=O)c1ccc(N2CCN(C(=O)C3CCN(S(=O)(=O)c4ccc5c(c4)CC(C)N5C(=O)C4CC4)CC3)CC2)cc1 (stereo not given)	40.5
CC(C)C(=O)N1CCC2(CC1)Oc1ccc(F)cc1C(=O)C21CC(c2ccccc2)=NO1 (stereo not given)	78.3
CC(C)C(=O)N1CCN(c2nc(-c3ccccc3)c3c(c2C#N)CC(C)(C)OC3)CC1	-0.13
Cc1ccc(C)c(-n2nnnc2SCC(=O)c2c(N)n(C)c(=O)n(C)c2=O)c1	-0.07
O=C(NCCC1CCCCN1S(=O)(=O)c1cccs1)C(=O)Nc1ccc(F)cc1F (stereo not given)	0.02
COc1ccccc1CNC(=O)C1CCN(S(=O)(=O)c2ccc3c(c2)CC(C)N3C(=O)C2CC2)CC1 (stereo not given)	0.09
O=C(CN(c1cccc(Cl)c1)S(=O)(=O)c1ccccc1)NN=C1CCCC1	0.07

Now look at this one.
# compound `COc1ccc(OC)c(-n2nnnc2SCC(=O)Nc2cc(C)ccc2OC)c1` ; its inhibition = -0.01

* * *

Test: antifungal drug efflux pump blockers, triplex strains – S. cerevisiae, Nile Red, multiplex, primary screen (AID 485275);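 also: Nile Red retained in pooled yeast measured as flow cytometry median fluorescence; 0% = buffer negative control and 100% = Enniatin B positive control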
Conditions: S. cerevisiae Candida pump triplex, at 10 µM, active compounds read high
Out of some 330,000 compounds screened, about 1,400 (0.42%) were called active. For the sample, actives were picked, then their nearest neighbours and some compounds at random.
OBSERVABLE: inhibition (%)
Express your answer in %, writing the number without its unit.

MOLECULE	UNITS_SYMBOL	inhibition
Cc1ccc(-n2c(SCC(=O)Nc3ncc(Cl)cc3Cl)nc3ccccc32)cc1	%	0.75
Cc1ccc(C)c(NC(=O)c2ccc(OC(=O)c3ccco3)cc2)c1	%	0.04
CCn1c(SCC(=O)NC2CC2)nnc1-c1ccccn1	%	-0.04
COc1ccc(CNc2ccc3c(c2)CCC3)cc1OC	%	0
O=C(CNCc1ccc(F)cc1)Nc1ccccc1-c1ccccc1	%	-0.07
O=C(CCNC(=O)c1ccc([N+](=O)[O-])cc1)Nc1ccccc1N1CCOCC1	%	0.19
O=C(COC(=O)COc1cc(Cl)c(Cl)cc1Cl)NC1CC1	%	0.12
S=c1[nH]nc(-c2ccncc2)n1/N=C/c1ccccc1Cl	%	0.13
Fc1ccccc1/C=N/n1c(-c2cccnc2)n[nH]c1=S	%	-0.01
O=C(Cn1c(-c2cscn2)nc2ccccc21)Nc1ccc(Cl)cc1	%	-0.15

# molecule `CC(C)n1c(COc2ccccc2)nc2ccccc21` ; its inhibition = 0.39

# molecule `CCOc1ccc(NC(=O)CN(C)C(=O)COc2cccc(CC)c2)cc1OCC` ; its inhibition = 0.06

# molecule `COC(=O)/C(=C1\Oc2ccc(C(C)(C)C)cc2S1)C(F)(F)F` ; its inhibition = -0.15

# molecule `CCN(CC(=O)Nc1c(F)cccc1F)C(=O)c1cnc(C)cn1` ; its inhibition = -0.12

# molecule Cc1ccc(C(=O)NCC(c2cccs2)N(C)C)cc1S(=O)(=O)N1CCOCC1 (stereo not drawn) ; its inhibition = 0.37

# molecule COc1ccc(C(=O)C2CCCN(Cc3ccc4nonc4c3)C2)c(C)c1 (stereo not drawn) ; its inhibition = 0.05

* * *

Assay: antifungal drug efflux pump blockers, triplex strains – S. cerevisiae, Nile Red, multiplex, primary screen (AID 485275);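 also: Nile Red retained in pooled yeast measured as flow cytometry median fluorescence; 0% = buffer negative control and 100% = Enniatin B positive control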
Settings: S. cerevisiae Candida pump triplex, at 10 µM, active compounds read high
Among all 330,000 compounds or so, about 1,400 (0.42%) were called active. What follows is part of a selection rich in actives, with near analogues and random picks from the rest.
OBSERVABLE: inhibition (%)
Express your answer in %, writing the number without its unit.

// known answers, use as guide
COMPOUND	OBSERVABLE	UNITS_SYMBOL	OBSERVED
Cc1c(C(=O)NCCN2C(=O)S/C(=C\c3cccs3)C2=O)cccc1[N+](=O)[O-]	inhibition	%	0.33
O=C(COc1ccc(/C=N/NC(=O)c2ccc(O)cc2)cc1)Nc1ccc([N+](=O)[O-])cc1	inhibition	%	-0.1
O=C(CN1C2CCC1CC(NC(=O)C1CC1)C2)NCc1ccccc1 (centres undefined)	inhibition	%	-0.03

# compound `Cc1ccc(N2CCN(c3ccc(C)cc3)C2c2ccccn2)cc1` ; its inhibition = 0.22

# compound `O=C1c2ccccc2[C@@H]2C[C@@H](O)[C@H](Nc3ccccc3Cl)CCN12` ; its inhibition = 0.16

# compound `NNC(=O)CSc1nnc(-c2ccccc2)n1-c1ccccc1` ; its inhibition = 0.17

# compound `O=C(NCc1ccc2c(c1)OCO2)c1cc(F)c(F)cc1Cl` ; its inhibition = 0.18

# compound `CC1=C(/C=C/C(C)=C/C=C/C(C)=C/C=C/C=C(C)/C=C/C=C(C)/C=C/C2=C(C)CCCC2(C)C)C(C)(C)CCC1` ; its inhibition = 0.08
